# Measured On: human dopamine D2 receptor (hD2R) (Homo sapiens)
# Sequence (P14416 whole entry): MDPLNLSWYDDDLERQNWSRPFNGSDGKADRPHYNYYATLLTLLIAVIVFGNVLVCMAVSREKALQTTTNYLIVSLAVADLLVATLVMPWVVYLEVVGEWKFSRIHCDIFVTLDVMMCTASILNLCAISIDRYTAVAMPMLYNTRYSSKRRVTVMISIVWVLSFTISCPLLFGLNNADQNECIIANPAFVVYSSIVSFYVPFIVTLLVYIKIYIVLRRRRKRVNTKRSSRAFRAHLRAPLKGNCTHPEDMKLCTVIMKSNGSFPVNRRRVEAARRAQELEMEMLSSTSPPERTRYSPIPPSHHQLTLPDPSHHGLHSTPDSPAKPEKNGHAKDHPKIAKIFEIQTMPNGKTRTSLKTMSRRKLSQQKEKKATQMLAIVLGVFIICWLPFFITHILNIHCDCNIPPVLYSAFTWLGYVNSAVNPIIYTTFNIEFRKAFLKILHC
# Measurement Description: Human D2 receptor binding assay ([^3H]-Spiperone)
# Condition Context: CHO cells expressing hD2R, geometric mean of 2-5 determinations unless marked b (single determination)
Readout Type: Ki

compound="CCO[C@H]1C[C@@H](c2ccc(S(=O)(=O)Nc3cc4c(nc3OC)CCN(C)CC4)cn2)C1 [Example 135]" meas_value="> 3140 nM"
compound="Cc1ccc(S(=O)(=O)Nc2cc3c(nc2C(F)(F)F)CCN(C)CC3)cc1 [Example 139]" meas_value="> 4280 nM"
compound="COc1nc2c(cc1NS(=O)(=O)c1ccc(C3CCCC3)nc1)CCN(C)CC2 [Example 16]" meas_value="122 nM"
